- assay_conditions: mouse, in vivo
measurement_type: (AUC0-t)prodrug group/(AUC0-t)prototype drug group

compound	value_reported
C/C(=C(\CCOC(=O)CCCC(=O)OC1CCC(N(C)C(=O)c2ccc3nonc3c2)CC1)SSCC(C)C)N(C)C=O (stereo not drawn)	0.60
CCCCCSS/C(CCOC(=O)CCCC(=O)OC1CCC(N(C)C(=O)c2ccc3nonc3c2)CC1)=C(/C)N(C)C=O (stereo not drawn)	0.65
CCCCSS/C(CCOC(=O)CCC(=O)OC1CCC(N(C)C(=O)c2ccc3nonc3c2)CC1)=C(/C)N(C)C=O (stereo not drawn)	0.68
CCCN(C=O)/C(C)=C(/CCOC(=O)CCCC(=O)OC1CCC(N(C)C(=O)c2ccc3nonc3c2)CC1)SSCC (stereo not drawn)	0.73

Inquiry: What measured (AUC0-t)prodrug group/(AUC0-t)prototype drug group goes with CCSS/C(CCOC(=O)CCCC(=O)OC1CCC(N(C)C(=O)c2ccc3nonc3c2)CC1)=C(/C)N(C=O)CC(=O)OCC1OC(O)C(O)C(O)C1O (stereo not drawn) ?
Reply text: 0.82

Inquiry: Record request: (AUC0-t)prodrug group/(AUC0-t)prototype drug group value, item CCCSS/C(CCOC(=O)CCCC(=O)OC1CCC(N(C)C(=O)c2ccc3nonc3c2)CC1)=C(/C)N(C)C=O (stereo not drawn)
Reply text: 0.47

Inquiry: Fill in the blank: the reported (AUC0-t)prodrug group/(AUC0-t)prototype drug group of C/C(=C(\CCOC(=O)CCCC(=O)OC1CCC(N(C)C(=O)c2ccc3nonc3c2)CC1)SSCCC(C)C)N(C)C=O (stereo not drawn) is ____.
Reply text: 0.41

Inquiry: Could you share which (AUC0-t)prodrug group/(AUC0-t)prototype drug group value was measured for C/C(=C(\CCOC(=O)CCCC(=O)OC1CCC(N(C)C(=O)c2ccc3nonc3c2)CC1)SSC(C)C)N(C)C=O (stereo not drawn) ?
Reply text: 0.72

Inquiry: Form field: reported (AUC0-t)prodrug group/(AUC0-t)prototype drug group of C/C(=C(\CCOC(=O)CCC(=O)OC1CCC(N(C)C(=O)c2ccc3nonc3c2)CC1)SSCc1ccccc1)N(C)C=O (stereo not drawn)
Reply text: 0.62
